Reference for the values: ChEMBL document CHEMBL5058577

Listed compounds paired with reported Population Membrane Permeable-Phenotype (%)
System: Fibroblast
Test: Multiplex assay against human fibroblast
Assay type: toxicity, cell-based
Conditions: 12 h, 10 µM, compound concentration 10 uM, replicate 1
REPORTED_ENDPOINT: Population Membrane Permeable-Phenotype (%)

COMPOUND	RESULT_NUMBER
CCCCCC(O)/C=C/[C@H]1C(=O)CC(O)C1C/C=C\CCCC(=O)O (stereo not given in full)	0
CN(C)C(=O)Cn1cc(-c2ccc(-c3cncc4ccccc34)cc2)cn1	1
Br.CS(=O)(=O)Nc1c(O)ccc2c1CCCC2C1=NCCN1 (stereo not given)	1
O=C1[C@H](Cc2ccc(O)cc2)N2C(=O)CCN(C(=O)NCc3ccccc3)[C@H]2CN1Cc1cccc2ccccc12	0
Cc1sc2c(c1C)C(c1ccc(Cl)cc1)=N[C@@H](CC(=O)NCCCCCCCCNC(=O)COc1cccc3c1C(=O)N(C1CCC(=O)NC1=O)C3=O)c1nnc(C)n1-2 (stereo not given in full)	1
COC[C@@H](c1ccc(C(F)(F)F)cc1)N1CCN(C2(C)CCN(C(=O)c3c(C)ncnc3C)CC2)C[C@@H]1C.O=C(O)/C=C\C(=O)O [VICRIVIROC MALEATE]	2
Cl.NCCc1ccc(O)c(O)c1 [DOPAMINE HYDROCHLORIDE]	0
Cc1c(CC(=O)O)c2cccnc2n1Cc1ccc(S(C)(=O)=O)cc1C(F)(F)F	1
Cc1onc(-c2ccccc2Cl)c1C(=O)N(C)c1ccc(Cl)cc1	2
C[C@H](N)COC(=O)[C@@H](CCCCN)NC(=O)Cc1c(-c2ccc3ccccc3c2)[nH]c2c1ccc1ccccc12	1

====

Tested on: U2OS
Experiment: Multiplex assay against U2OS
Assay type: toxicity, cell-based
Settings: human, 24 h, 1 µM, compound concentration 1 uM, replicate 1
Let's look at some molecules and their measured Total Cell Count.

MOLECULE	TARGET_OR_TEST_SYSTEM	Total Cell Count
CN1CCN(c2cc(-c3ccccc3)nc(N)n2)CC1	U2OS	278
Cc1sc2c(c1C)C(c1ccc(Cl)cc1)=N[C@@H](CC(=O)NCCCCCCCCNC(=O)COc1cccc3c1C(=O)N(C1CCC(=O)NC1=O)C3=O)c1nnc(C)n1-2 (stereo not given in full)	U2OS	297
N#Cc1cc(F)cc(-c2nc(-c3ccc(F)cn3)no2)c1	U2OS	197
CCc1cc2cc(NS(=O)(=O)c3ccc(C#N)cc3)ccc2n(CC)c1=O	U2OS	335
Cc1c(CC(=O)O)c2cccnc2n1Cc1ccc(S(C)(=O)=O)cc1C(F)(F)F	U2OS	256

====

Catalogue of Population Healthy Nuclei (%) readings, one per entry.
Test system: HEK-293T
Assay: Multiplex assay against HEK293T
Assay type: toxicity, cell-based
Conditions: human, 12 h, 1 µM, compound concentration 1 uM, replicate 2
REPORTED_ENDPOINT: Population Healthy Nuclei (%)

COMPOUND	TARGET_OR_TEST_SYSTEM	UNIT_STRING	RESULT_NUMBER
Cl.N=C(N)NC(=O)Cc1c(Cl)cccc1Cl [GUANFACINE HYDROCHLORIDE]	HEK-293T	%	76
CCCCC1=NC2(CCCC2)C(=O)N1Cc1ccc(-c2ccccc2-c2nnn[nH]2)cc1 [IRBESARTAN]	HEK-293T	%	78
CCCOc1ccc2[nH]cc(C3=CCNCC3)c2n1.Cl	HEK-293T	%	82
CC(/C=C1\SC(=S)N(CCCC(=O)Nc2ccc(C(=O)O)c(O)c2)C1=O)=C\c1ccccc1	HEK-293T	%	84
CC(C)(C)c1cc(NC(=O)Nc2ccc(-c3cn4c(n3)sc3cc(OCCN5CCOCC5)ccc34)cc2)no1 [QUIZARTINIB]	HEK-293T	%	80
Cc1sc2c(c1C)C(c1ccc(Cl)cc1)=N[C@@H](CC(=O)NCCCCCCCCNC(=O)COc1cccc3c1C(=O)N(C1CCC(=O)NC1=O)C3=O)c1nnc(C)n1-2 (stereo partly drawn)	HEK-293T	%	69
Cl.NCCc1ccc(O)c(O)c1 [DOPAMINE HYDROCHLORIDE]	HEK-293T	%	78
CCCCCC(O)/C=C/[C@H]1C(=O)CC(O)C1C/C=C\CCCC(=O)O (stereo partly drawn)	HEK-293T	%	83
